These measurements were taken from patent US9290507B2.

- MEASURED TARGET: B-Raf (V600E)-kinase (Homo sapiens (Human), UniProt P15056, V600E)
- Sequence (P15056 whole entry V600E): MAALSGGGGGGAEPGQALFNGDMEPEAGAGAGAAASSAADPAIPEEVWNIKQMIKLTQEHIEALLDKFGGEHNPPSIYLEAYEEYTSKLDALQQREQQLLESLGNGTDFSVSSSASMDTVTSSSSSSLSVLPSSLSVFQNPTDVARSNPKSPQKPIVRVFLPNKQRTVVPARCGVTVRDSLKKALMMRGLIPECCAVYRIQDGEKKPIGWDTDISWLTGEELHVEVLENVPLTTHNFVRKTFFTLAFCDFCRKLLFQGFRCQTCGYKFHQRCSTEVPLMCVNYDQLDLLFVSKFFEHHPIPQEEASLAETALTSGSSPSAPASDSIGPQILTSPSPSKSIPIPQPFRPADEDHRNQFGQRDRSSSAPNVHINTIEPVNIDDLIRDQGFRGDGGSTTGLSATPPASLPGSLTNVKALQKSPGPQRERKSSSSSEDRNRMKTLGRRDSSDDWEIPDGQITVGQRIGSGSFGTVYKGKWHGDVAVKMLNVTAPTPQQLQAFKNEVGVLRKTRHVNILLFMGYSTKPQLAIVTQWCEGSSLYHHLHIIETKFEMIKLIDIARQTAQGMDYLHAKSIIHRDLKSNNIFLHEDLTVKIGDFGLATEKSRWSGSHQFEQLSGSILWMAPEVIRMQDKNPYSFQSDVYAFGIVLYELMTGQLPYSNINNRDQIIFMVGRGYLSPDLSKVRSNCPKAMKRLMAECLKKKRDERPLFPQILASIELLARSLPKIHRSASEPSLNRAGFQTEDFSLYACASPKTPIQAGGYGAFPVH
- MEASUREMENT DESCRIPTION: Kinase test B-Raf (V600E)
- REPORTED CONDITIONS: 1 h preincubation, 250 μM ATP
VALUE KIND: pIC50
Worth noting: pIC50 values are minus log10 of concentrations stated in mol/L.

Before answering, review these 3 worked examples.
Cc1ccc(C(=O)Nc2cc(C(C)(C)C)on2)cc1-n1cc(-c2cncc(NCC(F)(F)F)c2)nn1 [I-21] | 7.30
CCN(C)c1cncc(-c2cn(-c3cc(C(=O)Nc4cc(C(C)(C)C)on4)ccc3C)nn2)c1 [I-56] | 7.74
Cc1ccc(C(=O)Nc2cc(C(C)(C)C)on2)cc1-n1cc(-c2cncc(NCCF)c2)nn1 [I-22] | 7.80

Proceeding to the next compound to report its pIC50.
Asked: Any idea what its pIC50 is? The compound is Cc1ccc(NC(=O)c2cc(CN(C)C)c(C(C)(C)C)o2)cc1-n1cc(-c2cncc(N3CCOCC3)c2)nn1 [II-44]
Given back: 7.96

###

- MEASURED TARGET: B-Raf (V600E)-kinase (Homo sapiens (Human), UniProt P15056, V600E)
- MEASUREMENT DESCRIPTION: Kinase test B-Raf (V600E)
- REPORTED CONDITIONS: 1 h preincubation, 250 μM ATP
- Method: In a dilution series 10 μL/well of test substance solution are placed in a multiwell plate. The dilution series is selected so that generally a range of concentrations of 2 μM to 0.119 nM or 0.017 nM is covered. […] After the addition of 200 μL/well Enhancement Solution (Perkin Elmer, #4001-0010/#1244-105) the mixture is shaken for 10 min at RT and then measured in a Wallac Victor using the program “Delfia Time Resolved Fluorescence (Europium)”. […]
VALUE KIND: IC50 (nM)
Reply with just the number (in nM).

Guide cases for IC50, answers given:
Cc1ccc(C(=O)Nc2cc(C(C)(C)C)on2)cc1-n1cc(-c2cncc(N3C[C@@H](C)O[C@@H](C)C3)c2)nn1 | 26
Cc1ccc(C(=O)Nc2cc(C(C)(C)C)on2)cc1-n1cc(-c2cncc(NC3CCCC3)c2)nn1 | 38
CCN1CCN(c2cncc(-c3cn(-c4cc(C(=O)Nc5cc(C(C)(C)C)on5)ccc4C)nn3)c2)CC1 | 6
Cc1ccc(C(=O)Nc2cc(C(F)(F)F)ccn2)cc1-n1cc(-c2cncc(N3CCCC3)c2)nn1 | 7
Cc1ccc(C(=O)Nc2cc(C(C)(C)C)on2)cc1-n1cc(-c2cncc(N3CC(N4CCN(C)CC4)C3)c2)nn1 | 8
Cc1ccc(C(=O)Nc2cc(C(C)(C)C)on2)cc1-n1cc(-c2cncc(NC(C)(C)C)c2)nn1 | 18

Let us examine a further case.
Asked: # query: IC50 | item Cc1ccc(NC(=O)c2ccc(C(C)(C)C)o2)cc1-n1cc(-c2cncc(N3CCN(CC4CC4)CC3)c2)nn1 | system: B-Raf (V600E)-kinase (Homo sapiens (Human), UniProt P15056, V600E)
Given back: 2

###

- MEASURED TARGET: B-Raf (V600E)-kinase (Homo sapiens (Human), UniProt P15056, V600E)
- MEASUREMENT DESCRIPTION: Kinase test B-Raf (V600E)
- REPORTED CONDITIONS: 1 h preincubation, 250 μM ATP
Checkbox rule: IC50 lower than 8 nM = YES; IC50 not lower than 8 nM = NO.

See these solved cases before continuing.
Cc1ccc(C(=O)Nc2cc(C(C)(C)C)on2)cc1-n1cc(-c2cncc(NC3CCOCC3)c2)nn1 | NO
COCCCN1CCN(c2cncc(-c3cn(-c4cc(NC(=O)c5ccc(C(C)(C)C)o5)ccc4C)nn3)c2)CC1 | YES
Cc1ccc(C(=O)Nc2cc(C(C)(C)C)on2)cc1-n1cc(-c2cncc(N3CCC(N4CCN(C)CC4)CC3)c2)nn1 | NO
Cc1ccc(NC(=O)c2ccc(C(C)(C)C)o2)cc1-n1cc(-c2cncc(N3CCNCC3)c2)nn1 | YES
Cc1ccc(NC(=O)c2cc(C)n(C(C)(C)C)n2)cc1-n1cc(-c2cncc(N3CCCN(C)CC3)c2)nn1 | NO
Cc1ccc(C(=O)Nc2cc(C(F)(F)F)ccn2)cc1-n1cc(-c2cncc(NC3CCOCC3)c2)nn1 | NO

Now let's try a different one.
Asked: Threshold test, IC50 < 8 nM: Cc1ccc(C(=O)Nc2cc(C(F)(F)F)ccn2)cc1-n1cc(-c2cncc(N(C)C3CCOC3)c2)nn1 (centres unmarked)
Given back: YES
